System: NCI-H1993
Assay: relative viability (nuclei count vs DMSO), 5 days (fraction); higher = more cells survive
Details: first compound 0.4 µM
In plain terms, low relative viability, meaning strictly below 0.8, gives rule met, and everything else gives rule not met.

COMPOUND	TARGET OR SYSTEM	CLASS ASSIGNMENT
C[C@@H]1CN(CC(=O)Nc2ccc3c(c2)Cc2cccc(-c4cc(=O)cc(N5CCOCC5)o4)c2S3)C[C@H](C)O1 + CC(=O)c1c(C)c2cnc(Nc3ccc(N4CCNCC4)cn3)nc2n(C2CCCC2)c1=O [Palbociclib] (partner 0.5 µM)	NCI-H1993	rule met
COc1cc(N2CCC(C(N)=O)CC2)ccc1Nc1nc(N)c(Cl)c(Nc2ccccc2S(=O)(=O)C(C)C)n1 [HG-5-88-01] + COc1cc2c(Oc3ccc(NC(=O)C4(C(=O)Nc5ccc(F)cc5)CC4)cc3F)ccnc2cc1OCCCN1CCOCC1 [Foretinib] (partner 0.25 µM)	NCI-H1993	rule met
COc1cc(N2CCC(C(N)=O)CC2)ccc1Nc1nc(N)c(Cl)c(Nc2ccccc2S(=O)(=O)C(C)C)n1 [HG-5-88-01] + O=C(CCCCCCC(=O)Nc1ccccc1)NO [Vorinostat] (partner 1 µM)	NCI-H1993	rule met
C[C@@H]1CN(CC(=O)Nc2ccc3c(c2)Cc2cccc(-c4cc(=O)cc(N5CCOCC5)o4)c2S3)C[C@H](C)O1 + O=C(c1cc(Cc2n[nH]c(=O)c3ccccc23)ccc1F)N1CCN(C(=O)C2CC2)CC1 [Olaparib] (partner 8 µM)	NCI-H1993	rule not met
COc1cc(N2CCC(C(N)=O)CC2)ccc1Nc1nc(N)c(Cl)c(Nc2ccccc2S(=O)(=O)C(C)C)n1 [HG-5-88-01] + C[C@@H](Oc1cc(-c2cnn(C3CCNCC3)c2)cnc1N)c1c(Cl)ccc(F)c1Cl [Crizotinib] (partner 1 µM)	NCI-H1993	rule not met
Clc1ccc(Nc2nnc(Cc3ccncc3)c3ccccc23)cc1 [Vatalanib] + Nc1nc2[nH]cc(CCc3ccc(C(=O)N[C@@H](CCC(=O)O)C(=O)O)cc3)c2c(=O)[nH]1 [Pemetrexed] (partner 0.2 µM)	NCI-H1993	rule met
COc1cc(N2CCC(C(N)=O)CC2)ccc1Nc1nc(N)c(Cl)c(Nc2ccccc2S(=O)(=O)C(C)C)n1 [HG-5-88-01] + O=C(c1cc(Cc2n[nH]c(=O)c3ccccc23)ccc1F)N1CCN(C(=O)C2CC2)CC1 [Olaparib] (partner 8 µM)	NCI-H1993	rule not met
